Target: human mGluR2 (Homo sapiens (Human))
Sequence (Q14416 19-872): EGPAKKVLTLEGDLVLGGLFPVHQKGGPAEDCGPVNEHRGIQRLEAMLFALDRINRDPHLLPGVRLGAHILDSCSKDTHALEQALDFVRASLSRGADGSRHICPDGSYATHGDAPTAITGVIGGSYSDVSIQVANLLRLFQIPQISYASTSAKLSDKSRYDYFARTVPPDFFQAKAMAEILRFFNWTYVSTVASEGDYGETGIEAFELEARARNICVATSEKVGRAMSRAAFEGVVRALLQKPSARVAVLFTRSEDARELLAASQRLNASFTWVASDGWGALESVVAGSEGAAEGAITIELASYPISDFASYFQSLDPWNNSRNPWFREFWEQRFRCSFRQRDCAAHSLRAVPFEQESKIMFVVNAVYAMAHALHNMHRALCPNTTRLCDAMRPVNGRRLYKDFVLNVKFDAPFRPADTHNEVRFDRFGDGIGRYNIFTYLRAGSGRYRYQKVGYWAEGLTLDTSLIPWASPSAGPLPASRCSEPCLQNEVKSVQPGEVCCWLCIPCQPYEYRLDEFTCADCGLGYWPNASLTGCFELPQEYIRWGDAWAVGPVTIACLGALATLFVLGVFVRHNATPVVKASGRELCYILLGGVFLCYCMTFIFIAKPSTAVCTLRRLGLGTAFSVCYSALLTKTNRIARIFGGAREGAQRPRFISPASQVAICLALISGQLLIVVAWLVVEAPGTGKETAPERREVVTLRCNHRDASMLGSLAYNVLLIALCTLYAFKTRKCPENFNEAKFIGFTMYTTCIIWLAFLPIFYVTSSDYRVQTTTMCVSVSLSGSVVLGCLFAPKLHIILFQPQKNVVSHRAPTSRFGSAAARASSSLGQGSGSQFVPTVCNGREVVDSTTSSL
Assay: [35S]GTPγS binding assay (Affinity to mGluR2)
Assay type: biochemical
Settings: cell membrane fraction of HEK293 cells stably expressing human mGluR2; glutamic acid 10 μM; inhibition of specific [35S]GTPγS binding
ASSAY_READOUT: IC50 (nM)

Illustrative cases are given below, each with its answer.
For this compound ( Cc1cc(-c2nc(-c3ccc(OC(F)(F)F)c(C)c3)n3c2CCO[C@H](CF)C3)cc(C)n1 ), measured IC50 is 4

For this compound ( COc1ccc(-c2nc(-c3cc(C)nc(CF)c3)c3n2C[C@@H](C)OCC3)cc1OC(F)(F)F ), measured IC50 is 4.7

[I] Cc1cc(-c2nc(-c3ccc(OC4CC4)c(Cl)c3)n3c2CCO[C@H](C)C3)cc(CF)n1
[II] Cc1cc(-c2nc(-c3ccc(OC(F)(F)F)c(F)c3)n3c2CCO[C@H](C)C3)cc(CF)n1
**Query** Please tell me which of the two, I or II , has the higher reported IC50 value. Mark your selection by writing its label.
**Result** II
(II: 18.7 nM, I: 5.3 nM)
